target: recombinant human AMPK complex 7 (containing α2β1γ1) (Homo sapiens (Human), UniProt P54646+Q9Y478); assay: In vitro AMPK activation assay (AMPKSAMSF), complex 7; format: biochemical; conditions: recombinant human AMPK complex 7 (α2β1γ1); 10-point titration; read-out: % Maximum AMP Activation of human AMPK Complex 7
Sequence (P54646 whole entry): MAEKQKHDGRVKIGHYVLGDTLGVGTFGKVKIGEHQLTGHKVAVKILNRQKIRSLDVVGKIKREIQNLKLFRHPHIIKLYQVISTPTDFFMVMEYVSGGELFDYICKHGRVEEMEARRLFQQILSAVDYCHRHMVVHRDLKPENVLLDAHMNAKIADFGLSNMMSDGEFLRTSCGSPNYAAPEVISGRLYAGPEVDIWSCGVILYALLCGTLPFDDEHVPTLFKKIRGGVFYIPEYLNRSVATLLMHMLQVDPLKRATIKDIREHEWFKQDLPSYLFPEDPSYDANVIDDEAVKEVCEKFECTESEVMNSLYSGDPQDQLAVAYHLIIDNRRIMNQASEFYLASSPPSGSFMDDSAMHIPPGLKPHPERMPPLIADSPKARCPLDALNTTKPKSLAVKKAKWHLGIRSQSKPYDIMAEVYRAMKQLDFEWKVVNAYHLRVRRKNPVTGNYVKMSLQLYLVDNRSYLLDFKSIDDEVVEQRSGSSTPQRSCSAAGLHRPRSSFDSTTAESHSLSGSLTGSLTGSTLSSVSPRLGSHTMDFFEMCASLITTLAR
Sequence (Q9Y478 whole entry): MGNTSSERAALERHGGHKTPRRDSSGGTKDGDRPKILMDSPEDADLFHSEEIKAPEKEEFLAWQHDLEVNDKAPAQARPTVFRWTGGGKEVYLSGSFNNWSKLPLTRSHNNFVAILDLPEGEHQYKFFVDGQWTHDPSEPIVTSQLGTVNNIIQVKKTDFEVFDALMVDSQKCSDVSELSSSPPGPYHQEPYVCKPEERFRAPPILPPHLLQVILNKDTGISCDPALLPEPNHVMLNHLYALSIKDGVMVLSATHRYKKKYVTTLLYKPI
Sequence (P54619 whole entry partner): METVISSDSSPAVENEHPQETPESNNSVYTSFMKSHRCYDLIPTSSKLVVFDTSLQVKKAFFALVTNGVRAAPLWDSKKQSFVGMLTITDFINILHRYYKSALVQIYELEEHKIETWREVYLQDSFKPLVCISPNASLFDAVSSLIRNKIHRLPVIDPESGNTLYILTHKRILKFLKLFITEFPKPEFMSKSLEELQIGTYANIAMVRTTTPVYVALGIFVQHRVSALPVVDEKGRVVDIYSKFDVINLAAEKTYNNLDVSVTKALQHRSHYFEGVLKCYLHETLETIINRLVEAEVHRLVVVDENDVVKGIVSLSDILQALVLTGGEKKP
Below, each of the compounds is paired with its reported Emax value.
Please give the number followed by its unit.

Look over these answered cases.
Would you kindly share the measured Emax for O=C1NCCC1c1ccc(-c2ccc(-c3cc4nc(O[C@H]5CO[C@H](CO)[C@@H](O)C5)[nH]c4cc3Cl)cc2)cc1 (stereo partly drawn) [Example 19] ?
392%

Would you kindly share the measured Emax for CC(CO)(CO)c1ccc(-c2ccc(-c3cc4nc(O[C@H]5CO[C@H](CO)[C@@H](O)C5)[nH]c4cc3Cl)cc2)cc1 [Example 7] ?
333%

Would you kindly share the measured Emax for OC[C@H]1OC[C@H](Oc2nc3c(F)c(-c4ccc(-c5ccc(-c6nnn[nH]6)cc5)cc4)c(F)cc3[nH]2)C[C@@H]1O [Example 49] ?
419%

Would you kindly share the measured Emax for OC[C@H]1OC[C@H](Oc2nc3c(F)c(-c4ccc(-c5ccc(C6CNCCO6)cc5)cc4)c(F)cc3[nH]2)C[C@@H]1O (stereo partly drawn) [Example 36] ?
327%

Would you kindly share the measured Emax for OC[C@H]1OC[C@H](Oc2nc3c(F)c(-c4ccc(-c5ccc(-c6nnc(O)o6)cc5)cc4)c(F)cc3[nH]2)C[C@@H]1O [Example 47] ?
328%

Others:
Would you kindly share the measured Emax for OC[C@H]1OC[C@H](Oc2nc3c(F)c(-c4ccc(-c5ccc(-c6nccs6)cc5)cc4)c(F)cc3[nH]2)C[C@@H]1O [Example 39] ?
192%

Would you kindly share the measured Emax for O=C(O)CCCc1ccc(-c2ccc(-c3c(F)cc4[nH]c(O[C@H]5CO[C@H](CO)[C@@H](O)C5)nc4c3F)cc2)cc1 [Example 44] ?
426%

Would you kindly share the measured Emax for OC[C@H]1OC[C@H](Oc2nc3cc(-c4ccc(-c5ccc(-c6nnn[nH]6)cc5)cc4)c(Cl)cc3[nH]2)C[C@@H]1O [Example 23] ?
387%

Would you kindly share the measured Emax for OC[C@H]1OC[C@H](Oc2nc3c(F)c(-c4ccc(-c5ccc(-n6cncn6)cc5)cc4)c(F)cc3[nH]2)C[C@@H]1O [Example 45] ?
391%
